Cited source for all entries: patent US20070244048A1

# system.under.test: T1, mouse NMUR1-ATG (mouse, UniProt O55040 1-428)
# T1 construct: whole, on cells; Cell line with engineered ATG start codon in place of the genomic CTG; also called mouse R1-ATG
# T1 sequence (looked up): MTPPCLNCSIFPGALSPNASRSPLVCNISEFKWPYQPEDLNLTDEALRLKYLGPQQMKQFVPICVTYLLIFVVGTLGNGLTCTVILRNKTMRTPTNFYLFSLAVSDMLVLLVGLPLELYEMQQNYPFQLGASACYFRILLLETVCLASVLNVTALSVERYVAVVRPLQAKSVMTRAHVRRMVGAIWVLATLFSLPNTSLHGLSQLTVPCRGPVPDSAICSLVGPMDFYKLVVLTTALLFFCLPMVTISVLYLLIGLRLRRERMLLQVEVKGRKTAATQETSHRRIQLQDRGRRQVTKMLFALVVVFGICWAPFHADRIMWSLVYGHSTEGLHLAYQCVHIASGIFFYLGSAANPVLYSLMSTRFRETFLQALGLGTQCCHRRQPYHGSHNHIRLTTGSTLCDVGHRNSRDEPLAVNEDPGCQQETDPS
# test.protocol: 125I-hNMU-25 displacement, cell membranes
No end group written: not given here.
reported.property: pIC50
Give bare numbers, as −log10 of the molar value.

query: Field request: pIC50 | item: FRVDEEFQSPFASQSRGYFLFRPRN-NH2 (also called hNMU-25; native hNMU) [human NMU-25]
result: 9.40
